Target: UniProt P06401
Sequence (P06401 whole entry): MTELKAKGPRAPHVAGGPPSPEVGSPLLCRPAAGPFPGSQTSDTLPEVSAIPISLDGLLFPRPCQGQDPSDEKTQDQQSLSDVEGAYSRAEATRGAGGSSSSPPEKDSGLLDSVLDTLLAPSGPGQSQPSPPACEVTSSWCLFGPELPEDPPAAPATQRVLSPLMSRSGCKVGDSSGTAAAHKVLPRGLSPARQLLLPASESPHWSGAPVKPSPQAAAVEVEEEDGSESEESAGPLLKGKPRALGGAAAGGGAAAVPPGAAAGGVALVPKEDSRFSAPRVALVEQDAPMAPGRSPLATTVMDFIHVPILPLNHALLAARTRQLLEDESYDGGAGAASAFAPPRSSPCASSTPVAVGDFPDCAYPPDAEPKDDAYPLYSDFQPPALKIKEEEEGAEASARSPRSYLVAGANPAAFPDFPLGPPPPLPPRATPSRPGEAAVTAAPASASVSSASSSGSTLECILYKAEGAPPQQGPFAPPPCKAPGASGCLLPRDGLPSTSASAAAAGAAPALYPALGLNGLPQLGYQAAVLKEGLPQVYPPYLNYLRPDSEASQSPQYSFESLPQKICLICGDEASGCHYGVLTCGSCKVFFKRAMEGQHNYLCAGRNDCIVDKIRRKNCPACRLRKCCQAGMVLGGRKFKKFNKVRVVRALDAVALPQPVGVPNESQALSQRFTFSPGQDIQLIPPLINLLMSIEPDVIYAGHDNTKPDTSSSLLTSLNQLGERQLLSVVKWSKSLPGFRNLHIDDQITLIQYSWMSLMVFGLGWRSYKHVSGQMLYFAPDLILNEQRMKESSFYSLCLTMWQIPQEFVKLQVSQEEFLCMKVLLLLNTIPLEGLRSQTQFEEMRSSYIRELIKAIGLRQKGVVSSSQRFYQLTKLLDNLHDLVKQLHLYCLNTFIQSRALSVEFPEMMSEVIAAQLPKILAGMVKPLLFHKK
Assay: Antagonist activity at human progesterone receptor beta expressed in human U2OS cells assessed as inhibition of D(-)-norgestrel-induced protein interaction with steroid receptor co-activator peptide after overnight incubation by beta-galactosidase reporter gene assay
REPORTED PROPERTY: IC50 (nM)

>  <STRUCTURE NOTATION>
C[C@H](c1ccc(F)cc1)N1C(=O)O[C@](Cc2ccccc2)(c2nc3cc(-c4cccnc4)ccc3[nH]2)C1=O

>  <OBS VALUE>
2900

$$$$
>  <STRUCTURE NOTATION>
Cc1nocc1-c1ccc2[nH]c([C@@]3(Cc4ccccc4)OC(=O)N([C@H](C)c4ccc(F)cc4)C3=O)nc2c1

>  <OBS VALUE>
2800

$$$$
>  <STRUCTURE NOTATION>
C[C@H](c1ccc(F)cc1)N1C(=O)O[C@](Cc2ccccc2)(c2nc3cc(C(F)(F)F)ccc3[nH]2)C1=O

>  <OBS VALUE>
3200

$$$$
>  <STRUCTURE NOTATION>
C[C@H](c1ccc(F)cc1)N1C(=O)O[C@](Cc2ccccc2)(c2nc3cc(-c4cc[nH]n4)ccc3[nH]2)C1=O

>  <OBS VALUE>
2900

$$$$
>  <STRUCTURE NOTATION>
C[C@H](c1ccc(F)cc1)N1C(=O)O[C@](Cc2ccccc2)(c2nc3cc(N4CCOCC4)ccc3[nH]2)C1=O

>  <OBS VALUE>
1900

$$$$

a = C[C@H](c1ccc(F)cc1)N1C(=O)O[C@](Cc2ccccc2)(c2nc3cc(Cl)ccc3[nH]2)C1=O
b = C[C@H](c1ccc(F)cc1)N1C(=O)O[C@](Cc2ccccc2)(c2nc3cc(NS(C)(=O)=O)ccc3[nH]2)C1=O
c = C[C@H](c1ccc(F)cc1)N1C(=O)O[C@](Cc2ccccc2)(c2nc3c(NS(C)(=O)=O)cccc3[nH]2)C1=O
Asked: hey, can you rank those molecules up there by IC50? biggest number first please Returns: the labels listed in the requested order.
Given back: c, b, a
